Molecular target: ferroportin (Homo sapiens, UniProt Q9NP59)
Sequence (Q9NP59 whole entry): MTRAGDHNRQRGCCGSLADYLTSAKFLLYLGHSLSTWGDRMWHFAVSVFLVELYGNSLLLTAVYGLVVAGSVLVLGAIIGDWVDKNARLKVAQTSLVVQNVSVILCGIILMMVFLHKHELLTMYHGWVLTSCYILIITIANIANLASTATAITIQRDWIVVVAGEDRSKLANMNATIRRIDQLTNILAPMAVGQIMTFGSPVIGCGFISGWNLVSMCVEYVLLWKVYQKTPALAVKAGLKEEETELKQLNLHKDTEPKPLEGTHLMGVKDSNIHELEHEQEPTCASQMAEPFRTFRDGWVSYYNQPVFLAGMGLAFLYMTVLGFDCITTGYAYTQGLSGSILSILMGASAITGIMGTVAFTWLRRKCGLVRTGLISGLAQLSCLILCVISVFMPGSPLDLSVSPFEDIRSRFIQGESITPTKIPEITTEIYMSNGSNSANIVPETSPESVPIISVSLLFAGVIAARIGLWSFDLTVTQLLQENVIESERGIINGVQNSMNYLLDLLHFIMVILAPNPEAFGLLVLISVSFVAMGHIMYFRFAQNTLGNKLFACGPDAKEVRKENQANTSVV
Test: FPN activity assay: ferroportin-GFP internalization/degradation in HEK293 cells
Type: cell-based
Parameters: expressed in transfected cells
Conditions: ferroportin-GFP HEK293 cells, at least 18 hours; read-out: FPN IC50
Positions of bridges follow the written chain, without caps; N, C: chain ends. Non-standard residues stand in square brackets, D forms with d. Residues, ends and D or L forms follow the SMILES beside them. Groups on a side chain read outwards from the residue. *: point of attachment. Dip = N[C@H](C(=O)O)C(c1ccccc1)c1ccccc1; Palmitoyl = CCCCCCCCCCCCCCCC(=O)*; β3hF = N[C@H](CC(=O)O)Cc1ccccc1; Ahx = NCCCCCC(=O)O
measured-endpoint: DC50

Form field DC50, entry CCCCCCCCCCCCCCCC(=O)NCCCCCC(=O)NCCCC[C@H](NC(=O)[C@@H](NC(=O)[C@@H]1CSSC[C@H](NC(C)=O)C(=O)N[C@@H](CCC(=O)O)C(=O)N[C@@H]([C@@H](C)O)C(=O)N[C@@H](Cc2c[nH]cn2)C(=O)N[C@@H](C(c2ccccc2)c2ccccc2)C(=O)N2CCC[C@H]2C(=O)N1)[C@@H](C)CC)C(=O)N[C@H](CC(N)=O)Cc1ccccc1 [Compd 9] (Ac-CETH[Dip]PCIK([Ahx-Palmitoyl])[β3hF]-NH2; disulfide 1-7) : 0.1 to 0.5 µM

* * *

Target: ferroportin (Homo sapiens, UniProt Q9NP59)
Assay: FPN activity assay: ferroportin-GFP internalization/degradation in HEK293 cells
Assay type: cell-based
Set-up: expressed in transfected cells
Conditions: ferroportin-GFP HEK293 cells, at least 18 hours; read-out: FPN IC50
Positions of bridges follow the written chain, without caps; N, C: chain ends. Non-standard residues stand in square brackets, D forms with d. Residues, ends and D or L forms follow the SMILES beside them. Groups on a side chain read outwards from the residue. *: point of attachment. C18 diacid = O=C(O)CCCCCCCCCCCCCCCCC(=O)*; Dip = N[C@H](C(=O)O)C(c1ccccc1)c1ccccc1; Palmitoyl = CCCCCCCCCCCCCCCC(=O)*; β3hF = N[C@H](CC(=O)O)Cc1ccccc1; dPen = CC(C)(S)[C@@H](N)C(=O)O; Isovaleryl = CC(C)CC(=O)*; hCys = N[C@@H](CCS)C(=O)O; Dap = NC[C@H](N)C(=O)O; AEEA = NCCOCCOCC(=O)O; Ahx = NCCCCCC(=O)O
measured-endpoint: DC50

Measured DC50 (ferroportin (Homo sapiens, UniProt Q9NP59)), entry CCCCCCCCCCCCCCCC(=O)NCCCCCC(=O)NCCCC[C@H](NC(=O)C[C@H](Cc1ccccc1)NC(=O)[C@@H]1NC(=O)[C@H]([C@@H](C)CC)NC(=O)[C@H](C)NC(=O)[C@@H]2CCCN2C(=O)[C@H](C(c2ccccc2)c2ccccc2)NC(=O)[C@H](Cc2c[nH]cn2)NC(=O)[C@H]([C@@H](C)O)NC(=O)[C@@H](NC(=O)CC(C)C)CSSC1(C)C)C(=O)N[C@H](CCCCN)C(N)=O [compound 104] (Isovaleryl-CTH[Dip]PAI[dPen][β3hF]K([Ahx-Palmitoyl])[dK]-NH2; disulfide 1-8) : 10 to 100 nM

Measured DC50 (ferroportin (Homo sapiens, UniProt Q9NP59)), entry COC(=O)CC[C@H](NC(=O)CC(C)C)C(=O)N[C@H](C(=O)N[C@@H](Cc1c[nH]cn1)C(=O)N[C@H](C(=O)N1CCC[C@H]1C(=O)N[C@H]1CSSC[C@@H](C(=O)N[C@@H](CCCCNC(=O)COCCOCCNC(=O)COCCOCCNC(=O)[C@H](CN)NC(=O)CCCCCCCCCCCCCCCCC(=O)O)C(=O)N[C@H](CC(=O)N[C@H](CCCCN)C(N)=O)Cc2ccccc2)NC1=O)C(c1ccccc1)c1ccccc1)[C@@H](C)O [Compd ID 42] (Isovaleryl-E(OMe)TH[Dip]PCCK([AEEA-AEEA-Dap-C18 diacid])[β3hF][dK]-NH2; disulfide 6-7) : 10 to 100 nM

Measured DC50 (ferroportin (Homo sapiens, UniProt Q9NP59)), entry CC(C)CC(=O)N[C@@H](CCC(=O)O)C(=O)N[C@H](C(=O)N[C@@H](Cc1c[nH]cn1)C(=O)N[C@H](C(=O)N1CCC[C@H]1C(=O)N[C@H]1CSSC[C@@H](C(=O)N[C@@H](CCCCNC(=O)COCCOCCNC(=O)COCCOCCNC(=O)CCCCCNC(=O)CCCCCCCCCCCCCCCCC(=O)O)C(=O)N[C@H](CC(=O)N[C@H](CCCCN)C(N)=O)Cc2ccccc2)NC1=O)C(c1ccccc1)c1ccccc1)[C@@H](C)O [Compd 22] (Isovaleryl-ETH[Dip]PCCK([AEEA-AEEA-Ahx-C18 diacid])[β3hF][dK]-NH2; disulfide 6-7) : 10 to 100 nM

Measured DC50 (ferroportin (Homo sapiens, UniProt Q9NP59)), entry CCCCCCCCCCCCCCCC(=O)NCCCCCC(=O)NCCCC[C@H](NC(=O)C[C@H](Cc1ccccc1)NC(=O)[C@@H]1CSSC[C@H](NC(=O)CC(C)C)C(=O)N[C@@H]([C@@H](C)O)C(=O)N[C@@H](Cc2c[nH]cn2)C(=O)N[C@@H](C(c2ccccc2)c2ccccc2)C(=O)N2CCC[C@H]2C(=O)N[C@@H](C)C(=O)N[C@@H]([C@@H](C)CC)C(=O)N1)C(=O)N[C@H](CCCCN)C(N)=O [Compd 43] (Isovaleryl-CTH[Dip]PAIC[β3hF]K([Ahx-Palmitoyl])[dK]-NH2; disulfide 1-8) : 1 to 10 nM

Measured DC50 (ferroportin (Homo sapiens, UniProt Q9NP59)), entry CCCCCCCCCCCCCCCC(=O)NCCCCCC(=O)NCCCC[C@H](NC(=O)[C@@H]1CSSC[C@H](NC(=O)[C@@H]2CCCN2C(=O)[C@@H](NC(=O)[C@H](Cc2c[nH]cn2)NC(=O)[C@@H](NC(=O)[C@H](CCC(=O)OC)NC(=O)CC(C)C)[C@@H](C)O)C(c2ccccc2)c2ccccc2)C(=O)N1)C(=O)N[C@H](CC(=O)N[C@H](CCCCN)C(N)=O)Cc1ccccc1 [Compd 40] (Isovaleryl-E(OMe)TH[Dip]PCCK([Ahx-Palmitoyl])[β3hF][dK]-NH2; disulfide 6-7) : 10 to 100 nM

Measured DC50 (ferroportin (Homo sapiens, UniProt Q9NP59)), entry CC[C@H](C)[C@H](NC(=O)[C@@H]1CSSC[C@H](NC(=O)[C@H](Cc2c[nH]cn2)NC(=O)[C@@H](NC(=O)[C@H](CCC(=O)O)NC(=O)CC(C)C)[C@@H](C)O)C(=O)N2CCC[C@H]2C(=O)N1)C(=O)N[C@@H](CCCCNC(=O)COCCOCCNC(=O)COCCOCCNC(=O)CCCCCNC(=O)CCCCCCCCCCCCCCCCC(=O)O)C(=O)N[C@H](CC(=O)N[C@H](CCCCN)C(N)=O)Cc1ccccc1 [Compd 20] (Isovaleryl-ETHCPCIK([AEEA-AEEA-Ahx-C18 diacid])[β3hF][dK]-NH2; disulfide 4-6) : 100 to 500 nM

Measured DC50 (ferroportin (Homo sapiens, UniProt Q9NP59)), entry CCCCCCCCCCCCCCCC(=O)NCCCCCC(=O)NCCCC[C@H](NC(=O)[C@@H](NC(=O)[C@@H]1CSSC[C@H](NC(=O)CC(C)C)C(=O)N[C@@H](CCC(=O)O)C(=O)N[C@@H]([C@@H](C)O)C(=O)N[C@@H](Cc2c[nH]cn2)C(=O)N[C@@H](C(c2ccccc2)c2ccccc2)C(=O)N2CCC[C@H]2C(=O)N1)[C@@H](C)CC)C(=O)N[C@H](CC(N)=O)Cc1ccccc1 [Compd 10] (Isovaleryl-CETH[Dip]PCIK([Ahx-Palmitoyl])[β3hF]-NH2; disulfide 1-7) : 100 to 500 nM

Measured DC50 (ferroportin (Homo sapiens, UniProt Q9NP59)), entry CCCCCCCCCCCCCCCC(=O)NCCCCCC(=O)NCCCC[C@H](NC(=O)C[C@H](Cc1ccccc1)NC(=O)[C@@H]1CCSSC[C@H](NC(=O)CC(C)C)C(=O)N[C@@H]([C@@H](C)O)C(=O)N[C@@H](Cc2c[nH]cn2)C(=O)N[C@@H](C(c2ccccc2)c2ccccc2)C(=O)N2CCC[C@H]2C(=O)N[C@@H](C)C(=O)N[C@@H]([C@@H](C)CC)C(=O)N1)C(=O)N[C@H](CCCCN)C(N)=O [compound 108] (Isovaleryl-CTH[Dip]PAI[hCys][β3hF]K([Ahx-Palmitoyl])[dK]-NH2; disulfide 1-8) : 10 to 100 nM
